Entry source: PubChem BioAssay (EPA / NIEHS)

- Read-out: adenosine kinase (ADK) gene, ADK (gene 132)
- EXPERIMENT: LTEA_HepaRG_ADK: Life Technologies and Expression Analysis (LTEA) Assay for adenosine kinase (ADK) gene using HepaRG (AID 2283471)
- CONDITION INFO: mRNA level, 48 h; actives raise or lower the signal
The source made the active and inactive calls. The calls were made as follows: active = hit-call score of the fitted dose curve at least 0.9, where 1 is the maximum; inactive = score below 0.9.
Possible outcomes: active, inactive

- COMPOUND: "Clc1ccc(C(c2ccccc2Cl)C(Cl)(Cl)Cl)cc1 (stereo not drawn)"
  CAT: "inactive"
- COMPOUND: "O=C(N[C@H]1CN2CCC1CC2)c1cc2ccoc2cn1"
  CAT: "inactive"
- COMPOUND: "Oc1ccc(C(c2ccc(O)cc2)(C(F)(F)F)C(F)(F)F)cc1"
  CAT: "active"

----------
- Read-out: Caspase-3 (Homo sapiens) (UniProt P42574)
- Sequence (P42574 whole entry, looked up): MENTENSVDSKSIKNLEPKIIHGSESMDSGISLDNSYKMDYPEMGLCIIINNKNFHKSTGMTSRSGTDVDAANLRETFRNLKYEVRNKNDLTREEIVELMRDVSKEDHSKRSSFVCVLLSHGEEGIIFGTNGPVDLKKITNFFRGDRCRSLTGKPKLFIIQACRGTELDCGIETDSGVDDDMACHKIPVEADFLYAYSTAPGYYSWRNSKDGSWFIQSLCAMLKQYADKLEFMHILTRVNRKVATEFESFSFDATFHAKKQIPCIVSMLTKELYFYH
- EXPERIMENT: LTEA_HepaRG_CASP3: Life Technologies and Expression Analysis (LTEA) Assay for cysteine-aspartic acid protease (CASP3) using HepaRG (AID 2283477)
- CONDITION INFO: mRNA level, 48 h; actives raise or lower the signal
The source made the active and inactive calls. The calls were made as follows: active = hit-call score of the fitted dose curve at least 0.9, where 1 is the maximum; inactive = score below 0.9.
Outcome codes: active, inactive

- MOLECULE: "N#Cc1ccc(N(CC(N)=O)CC(F)(F)F)cc1C(F)(F)F"
  CAT: "inactive"
- MOLECULE: "C[C@]12CCC(=O)C=C1CC[C@@H]1[C@@H]2CC[C@@]2(C)[C@H]1CC[C@]2(C)O"
  CAT: "inactive"
- MOLECULE: "CC#Cc1cc(C)nc(Nc2ccccc2)n1"
  CAT: "inactive"
- MOLECULE: "Clc1ccc(C(Cl)(Cl)Cl)cc1"
  CAT: "inactive"
- MOLECULE: "Oc1ccc(C(c2ccc(O)cc2)(C(F)(F)F)C(F)(F)F)cc1"
  CAT: "inactive"
- MOLECULE: "ClC1=C(Cl)[C@]2(Cl)[C@@H]3[C@@H](Cl)[C@H]4O[C@H]4[C@@H]3C1(Cl)C2(Cl)Cl"
  CAT: "inactive"
- MOLECULE: "ClC1=C(Cl)[C@]2(Cl)[C@@H]3[C@@H]4C[C@@H]([C@H]5O[C@@H]45)[C@@H]3[C@@]1(Cl)C2(Cl)Cl"
  CAT: "active"
- MOLECULE: "Cc1ccccc1CO[C@@H]1C[C@@]2(C(C)C)CC[C@]1(C)O2"
  CAT: "inactive"
- MOLECULE: "C=CC(=O)NCNC(=O)C=C"
  CAT: "inactive"
- MOLECULE: "CCC(C)(c1ccc(O)cc1)c1ccc(O)cc1"
  CAT: "inactive"
- MOLECULE: "Cc1ccccc1O"
  CAT: "inactive"
- MOLECULE: "CCCCCCCCCc1ccc(O)cc1"
  CAT: "inactive"
- MOLECULE: "Oc1c(Cl)c(Cl)c(Cl)c(Cl)c1Cl"
  CAT: "active"
- MOLECULE: "Cc1ccccc1[N+](=O)[O-]"
  CAT: "inactive"
- MOLECULE: "O=S(=O)(O)C(F)(F)C(F)(F)C(F)(F)C(F)(F)F"
  CAT: "inactive"
- MOLECULE: "CCCCCCCCCC[N+](C)(C)CCCCCCCCCC"
  CAT: "active"
- MOLECULE: "CN(C)CCO"
  CAT: "inactive"
- MOLECULE: "COS(=O)(=O)OC"
  CAT: "inactive"
- MOLECULE: "CCCCCCOC(=O)c1ccccc1C(=O)OCCCCCC"
  CAT: "inactive"
- MOLECULE: "O=S(=O)(O)C(F)(F)C(F)(F)C(F)(F)C(F)(F)C(F)(F)C(F)(F)F"
  CAT: "inactive"
- MOLECULE: "ClC1=C(Cl)[C@]2(Cl)[C@@H]3[C@H]4C[C@H]([C@@H]5O[C@H]45)[C@@H]3[C@@]1(Cl)C2(Cl)Cl"
  CAT: "inactive"
- MOLECULE: "C1CC2OC2CC1C1CO1 (centres undefined)"
  CAT: "inactive"
- MOLECULE: "Nn1cnnc1"
  CAT: "inactive"
- MOLECULE: "Nc1ccc(-c2ccc(N)cc2)cc1"
  CAT: "inactive"
